PROCEDURE_TEXT: MTT cytotoxicity assay of the compounds (CC50, NCTC, selectivity index)
RECORDED_CONDITIONS: dog
Counter-ions that a name gives are not always drawn.
PARAMETER_MEASURED: CC50 at 48 h (µg/mL)
Answers are plain numbers, in µg/mL.

Q. Return reported CC50 at 48 h. Input molecule: NC12CC3CC(CC(C3)C1)C2 [Amantadine hydrochloride, reference compound]
A. 200
